Reference source for all entries: patent US20160046672A1

# Assay explanation: Circular dichroism, percent α-helicity in solution
# Assay type: physicochemical
# Protocol conditions: CD, 5 mM sodium phosphate buffer pH 7.0
Non-standard residues stand in square brackets, D forms with d. Residues, ends and D or L forms follow the SMILES beside them. Abu = CC[C@H](N)C(=O)O; Aib = CC(C)(N)C(=O)O
Here, each record is paired with measured Helicity (%) data.

[
  {
    "Molecule": "CC[C@H](NC(=O)C(C)(C)NC(=O)[C@H](CC(C)C)NC(=O)[C@H](CC(C)C)NC(=O)[C@H](Cc1ccccc1)NC(=O)C(C)(C)NC(=O)[C@H](CCCNC(=N)N)NC(=O)[C@H](CO)NC(=O)[C@H](Cc1ccc(O)cc1)NC(=O)[C@H](CCCNC(=N)N)NC(=O)[C@H](CCCCN)NC(=O)[C@H](CCCCN)NC(C)=O)C(N)=O [TIP-01^F12&, KKRYSRXFLLX&] (Ac-KKRYSR[Aib]FLL[Aib][Abu]-NH2)",
    "Uom": "%",
    "Helicity (%)": 11
  },
  {
    "Molecule": "CC(=O)N[C@@H](CCCCN)C(=O)N[C@@H](CCCCN)C(=O)N[C@@H](CCCNC(=N)N)C(=O)N[C@@H](Cc1ccc(O)cc1)C(=O)N[C@@H](CO)C(=O)N[C@@H](CCCNC(=N)N)C(=O)NC(C)(C)C(=O)N[C@@H](CCC(N)=O)C(=O)N[C@@H](CC(C)C)C(=O)N[C@@H](CC(C)C)C(=O)NC(C)(C)C(=O)N[C@@H](CC(C)C)C(N)=O",
    "Uom": "%",
    "Helicity (%)": 4
  }
]
